experiment: Measurement of pKa value (spectrophotometric titration); format: physicochemical; conditions: DMF/water (1/1) solution, 2×10^−5 mol/l, titrated from pH 2 with NaOH, UV-visible spectrum, read-out: pKa value determined
Give 1 (yes) when the value for pKa is at least 5. Give 0 (no) when it is less.

Please review the following examples before continuing.
> print(dat)
                                     smiles  class.label
1  CC(C)CSc1nnc(/N=N/c2cc(Cl)c(O)c(Cl)c2Cl)s1       0 (no)
2            Cc1cc(/N=N/c2snc(C)c2C#N)ccc1O      1 (yes)

Request: API: above_or_equal(metric=pKa, cutoff=5) for item CCSc1nsc(/N=N/c2cc(Cl)c(O)c(NC(=O)CC)c2)n1
Response: 0 (no)

###

assay: Measurement of pKa value (spectrophotometric titration); type: physicochemical; details: DMF/water (1/1) solution, 2×10^−5 mol/l, titrated from pH 2 with NaOH, UV-visible spectrum, read-out: pKa value determined
In this section, each of the compounds is paired with its reported pKa.
Output spec: single numeric token, no unit.

Request: Please look up its pKa: Cc1nsc(/N=N/c2ccc(O)c(Cl)c2)c1C#N
Response: 5.02

###

experiment: Measurement of pKa value (spectrophotometric titration); type: physicochemical; conditions: DMF/water (1/1) solution, 2×10^−5 mol/l, titrated from pH 2 with NaOH, UV-visible spectrum, read-out: pKa value determined
Give yes (1) when the value for pKa is at least 4. Give no (0) when it is less.

Request: API: above_or_equal(metric=pKa, cutoff=4) for item COc1cc(/N=N/c2snc(C)c2C#N)ccc1O
Response: yes (1)

Request: API: above_or_equal(metric=pKa, cutoff=4) for item Oc1c(Cl)cc(/N=N/c2nncs2)cc1Cl
Response: no (0)

Request: API: above_or_equal(metric=pKa, cutoff=4) for item Oc1cc(Cl)c(/N=N/c2nc3ccc(Cl)cc3s2)cc1Cl
Response: yes (1)

Request: API: above_or_equal(metric=pKa, cutoff=4) for item CC(=O)Nc1cc(/N=N/c2nncs2)c(NC(C)=O)cc1O
Response: yes (1)

Request: API: above_or_equal(metric=pKa, cutoff=4) for item CC(=O)Nc1cc(/N=N/c2nncs2)ccc1O
Response: yes (1)

Request: API: above_or_equal(metric=pKa, cutoff=4) for item CCSc1nsc(/N=N/c2cc(Cl)c(O)cc2Cl)n1
Response: no (0)
